Target: T1, human Sdc2 (human, UniProt P34741 19-144, limits assumed)
T1 construct: Antigen of the Octet tandem binning, loaded on biosensors at 100 nM; also called huSdc2; hSdc2
T1 sequence (P34741 19-144 limits assumed): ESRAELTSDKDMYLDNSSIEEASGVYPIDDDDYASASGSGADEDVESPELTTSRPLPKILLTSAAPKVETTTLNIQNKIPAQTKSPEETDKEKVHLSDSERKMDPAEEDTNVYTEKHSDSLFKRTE
Experiment: Kd (human Sdc2), summary table of the mAbs
The reader will find reported pKd values listed item by item below.
Friendly reminder that pKd comes from taking -log10 of the concentration in mol/L.

Below: 2 binders and their reported pKd.
[[record]]
binder = "8-G17-A (antibody, V domains shown, PentaMice hybridoma clone, made recombinantly in CHO cells) VH: EVQLVESGGGLVKPGGSLKLSCEASGITFSNYVMSWVRQTPEKRLEWVATISDGGSYTYYPDNLKGRFTISRDNAKNNLYLQMSHLKSEDTAMYYCVRDRYDYDGRVYAMDYWGQGTSVTVSS VL: DVVMTQTPLSLPVSLGDQASISCRSSQSLVHSNGNTYLHWYLQKPGQSPKLLIYKVSNRFSGVPDRFSGSGSGTDFTLKITRVEAEDLGVYFCSQSTHVPWTFGGGTKLEIKR"
reported_measurement = 9.34

[[record]]
binder = "R3-P3-E09 (antibody, human IgG1, kappa, V domains shown, human IgG1 kappa from the phage campaign) VH: EVQLVETGGGVVQPGRSLTLSCGASEFTFSNYAMHWVRQAPGKGLEWVAVISYDGTKKYYGDSVKGRFTISRENIKNTLYLQMNSLRSEDTAVYYCARDVGKGVTATGTFDIWGQGTMVTVSS VL: AIRMTQSPSSLSASVGDRVTITCRASQGIGSYLAWFQQKPGEAPKSLIIDATRLKSGVPSRFSGSGSGTEFALTISSLRPEDFATYYCQQYNVSPLTFGGGTKVEIKR"
reported_measurement = 7.75


We next turn to a different binder, shown below.
IN: What value of measured pKd is listed for R4M-P3-E06 (antibody, human IgG1, kappa, V domains shown, human IgG1 kappa from the phage campaign) VH: EVQLVESGGGVVQPGGSLRLSCAASGFTFSNYGMHWVRQAPGKGLEWVATISYDGTKKYYPDSVRGRFTISRDNSENMLYLQMDSLRLEDTAVIYCAKDLVSGSRYGFAFDSWGPGTLVTVSS VL: DIVMTQSPLSLPVTLGQPASISCRSSQSLVHSDGNTYLNWFQQRPGQSPRRLIYKVSNRDSGVPDRFSGTGSGTDFTLKISRVEADDVGVYYCMQGTHWPPIFGQGTRLEIKR ?
OUT: 6.35
